For each entry below, report its Parent drug as % of total drug in the cell value.
- System: L1210 cells
- Experiment notes: Metabolic transformation of polyamine analogues by L1210 cells
- Assay type: in vitro ADME, murine
- Experimental context: 48 hours, 100 μM analogue
Counter-ions that a name gives are not always drawn.
One number for each entry, in %.

See these solved cases before continuing.
Readout Parent drug as % of total drug in the cell for CCCNCCCNCCCNCCC [DPNSPD, Trihydrochloride] , test system L1210 cells, was 57.7

Reported L1210 cells Parent drug as % of total drug in the cell for item CNCCCCNCCCNC [DMSPD, Trihydrochloride] was 100

I have 3 compounds here; please give me Parent drug as % of total drug in the cell for each one.
1. CCCNCCCNCCCCN [MPSPD(N1), N^1-Propylspermidine Trihydrochloride]
2. CCCNCCCCNCCCNCCC [DPSPD, Trihydrochloride]
3. CCNCCCCNCCCCNCC [DEHSPD, Trihydrochloride]

1. 93.9
2. 90.1
3. 100
